Hey, just so you know, these numbers are from ChEMBL document CHEMBL3588823.

test-summary: Tmax in rat at 5 mg/kg, po
Type: ADME, organism-based
condition: in vivo
Below, each of the molecules is paired with its reported Tmax value.
Numbers only here, please. The scale is h.

# smiles, Tmax / h
rows = [
    ("COC(=O)c1ccc(N2C(=S)N(c3ccc(C#N)c(C(F)(F)F)c3)C(=O)[C@]23CCOC3)cc1F", 1.67),
    ("N#Cc1ccc(N2C(=O)[C@]3(CCOC3)N(c3ccc(C(N)=O)c(F)c3)C2=S)cc1C(F)(F)F", 2),
]

Consider the additional molecule presented here.
// query May I ask what Tmax has been recorded for N#Cc1ccc(N2C(=O)[C@]3(CCOC3)N(c3ccc(C(=O)O)c(F)c3)C2=S)cc1C(F)(F)F ?
// result 0.42

----------
test-summary: Volume of distribution in rat at 1 mg/kg, iv
Format: ADME, organism-based
condition: in vivo
metric-name: Vd (L/kg)
Provide only the numeric value, understood in L/kg.

# smiles, Vd / L/kg
measured = [
    ("N#Cc1ccc(N2C(=O)[C@]3(CCOC3)N(c3ccc(C(=O)O)c(F)c3)C2=S)cc1C(F)(F)F", 8),
    ("N#Cc1ccc(N2C(=O)[C@]3(CCOC3)N(c3ccc(C(N)=O)c(F)c3)C2=S)cc1C(F)(F)F", 7),
    ("CNC(=O)c1ccc(N2C(=S)N(c3ccc(C#N)c(C(F)(F)F)c3)C(=O)[C@]23CCOC3)cc1F", 2.3),
]

// query Fill blank: measured Vd of the compound COC(=O)c1ccc(N2C(=S)N(c3ccc(C#N)c(C(F)(F)F)c3)C(=O)[C@]23CCOC3)cc1F is ____.
// result 46

----------
test-summary: Cmax in rat at 5 mg/kg, po
Format: ADME, organism-based
Set-up: dose 5 mg/kg, route oral
condition: in vivo
metric-name: Cmax (ng/mL)
Entry rule: numbers only, all in ng/mL.

Check out these entries, answers already filled in.
# smiles, Cmax / ng/mL
records = [
    ("COC(=O)c1ccc(N2C(=S)N(c3ccc(C#N)c(C(F)(F)F)c3)C(=O)[C@]23CCOC3)cc1F", 104),
    ("N#Cc1ccc(N2C(=O)[C@]3(CCOC3)N(c3ccc(C(=O)O)c(F)c3)C2=S)cc1C(F)(F)F", 231),
]

// query Form field: reported Cmax of N#Cc1ccc(N2C(=O)[C@]3(CCOC3)N(c3ccc(C(N)=O)c(F)c3)C2=S)cc1C(F)(F)F
// result 261

----------
test-summary: Clearance in rat at 5 mg/kg, po
Assay type: ADME, organism-based
condition: in vivo
Catalogue of compounds with associated CL/F
Quick reminder: number only, in mL/min/kg, skip the unit.

# smiles, CL/F, mL/min/kg
rows = [
    ("N#Cc1ccc(N2C(=O)[C@]3(CCOC3)N(c3ccc(C(=O)O)c(F)c3)C2=S)cc1C(F)(F)F", 117),
]

# ---- query compound ----
// query Fill blank: measured CL/F of the compound COC(=O)c1ccc(N2C(=S)N(c3ccc(C#N)c(C(F)(F)F)c3)C(=O)[C@]23CCOC3)cc1F is ____.
// result 147

----------
test-summary: Oral bioavailability in rat at 5 mg/kg
Type: ADME, organism-based
condition: in vivo
metric-name: bioavailability (%)
Give just the numeric value; % need not be written.

Below, each entry is followed by its recorded bioavailability result.
# smiles, metric-name, observed-value
rows = [
    ("N#Cc1ccc(N2C(=O)[C@]3(CCOC3)N(c3ccc(C(=O)O)c(F)c3)C2=S)cc1C(F)(F)F", "bioavailability", 29),
    ("CNC(=O)c1ccc(N2C(=S)N(c3ccc(C#N)c(C(F)(F)F)c3)C(=O)[C@]23CCOC3)cc1F", "bioavailability", 100),
    ("COC(=O)c1ccc(N2C(=S)N(c3ccc(C#N)c(C(F)(F)F)c3)C(=O)[C@]23CCOC3)cc1F", "bioavailability", 19),
]

We now examine a further compound.
// query I have this compound here, N#Cc1ccc(N2C(=O)[C@]3(CCOC3)N(c3ccc(C(N)=O)c(F)c3)C2=S)cc1C(F)(F)F , and I need its recorded bioavailability.
// result 87

----------
test-summary: MRT (last) in rat at 1 mg/kg, iv
Assay type: ADME, organism-based
condition: in vivo
Consider the following molecules and their measured MRT last readings.
Number only, in h; omit the unit.

Examples from the recorded data:
# smiles, metric-name, reading-unit, observed-value
records = [
    ("CNC(=O)c1ccc(N2C(=S)N(c3ccc(C#N)c(C(F)(F)F)c3)C(=O)[C@]23CCOC3)cc1F", "MRT last", "h", 4.8),
    ("N#Cc1ccc(N2C(=O)[C@]3(CCOC3)N(c3ccc(C(=O)O)c(F)c3)C2=S)cc1C(F)(F)F", "MRT last", "h", 0.5),
    ("N#Cc1ccc(N2C(=O)[C@]3(CCOC3)N(c3ccc(C(N)=O)c(F)c3)C2=S)cc1C(F)(F)F", "MRT last", "h", 1.6),
]

// query Form field: reported MRT last of COC(=O)c1ccc(N2C(=S)N(c3ccc(C#N)c(C(F)(F)F)c3)C(=O)[C@]23CCOC3)cc1F
// result 4.3

----------
assayed-system: Androgen receptor (Homo sapiens, UniProt P10275)
Sequence (P10275 whole entry): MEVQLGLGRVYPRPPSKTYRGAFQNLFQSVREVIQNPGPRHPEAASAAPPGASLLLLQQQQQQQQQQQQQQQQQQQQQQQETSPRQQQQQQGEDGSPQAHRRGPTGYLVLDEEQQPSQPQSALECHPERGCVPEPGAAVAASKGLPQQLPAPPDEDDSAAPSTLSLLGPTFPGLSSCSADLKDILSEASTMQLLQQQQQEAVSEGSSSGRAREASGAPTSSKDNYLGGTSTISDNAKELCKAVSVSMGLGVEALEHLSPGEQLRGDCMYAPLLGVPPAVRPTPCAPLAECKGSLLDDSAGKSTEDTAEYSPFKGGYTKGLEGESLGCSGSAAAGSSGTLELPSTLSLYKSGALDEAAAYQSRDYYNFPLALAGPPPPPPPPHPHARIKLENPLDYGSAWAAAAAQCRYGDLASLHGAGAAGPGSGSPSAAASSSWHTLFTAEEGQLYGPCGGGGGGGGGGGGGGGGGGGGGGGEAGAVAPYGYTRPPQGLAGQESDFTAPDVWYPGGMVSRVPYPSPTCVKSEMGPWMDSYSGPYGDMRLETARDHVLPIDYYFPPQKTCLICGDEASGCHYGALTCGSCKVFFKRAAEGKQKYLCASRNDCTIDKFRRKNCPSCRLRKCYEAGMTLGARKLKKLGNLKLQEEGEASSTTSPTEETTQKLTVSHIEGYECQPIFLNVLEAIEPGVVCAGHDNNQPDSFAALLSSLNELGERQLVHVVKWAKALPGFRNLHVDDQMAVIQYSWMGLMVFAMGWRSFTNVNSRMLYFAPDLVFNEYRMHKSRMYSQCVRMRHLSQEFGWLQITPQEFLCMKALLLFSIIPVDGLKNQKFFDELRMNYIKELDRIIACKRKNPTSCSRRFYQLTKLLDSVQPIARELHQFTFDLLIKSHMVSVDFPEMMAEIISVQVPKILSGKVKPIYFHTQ
test-summary: Antagonist activity at androgen receptor (unknown origin)
metric-name: Ki (nM)
The answer is to be given in nM; state only the numeric part.

# compound, assayed-system, Ki, nM
rows = [
    ("CCOC(=O)CC1(C)C(=O)N(c2ccc(C#N)c(C(F)(F)F)c2)C(=S)N1c1ccc(C(=O)NC)c(F)c1 (racemic)", "Androgen receptor (Homo sapiens, UniProt P10275)", 236),
    ("CNC(=O)c1ccc(N2C(=S)N(c3ccc(C#N)c(C(F)(F)F)c3)C(=O)C2(COC)COC)cc1F", "Androgen receptor (Homo sapiens, UniProt P10275)", 585),
    ("N#Cc1ccc(N2C(=O)[C@]3(CCOC3)N(c3ccc(C(N)=O)c(F)c3)C2=S)cc1C(F)(F)F", "Androgen receptor (Homo sapiens, UniProt P10275)", 14.1),
    ("CNC(=O)c1ccc(N2C(=S)N(c3ccc(C#N)c(C(F)(F)F)c3)C(=O)[C@@]23CCOC3)cc1F", "Androgen receptor (Homo sapiens, UniProt P10275)", 215),
    ("COC(=O)c1ccc(N2C(=S)N(c3ccc(C#N)c(C(F)(F)F)c3)C(=O)[C@]23CCOC3)cc1F", "Androgen receptor (Homo sapiens, UniProt P10275)", 11.9),
    ("CNC(=O)c1ccc(N2C(=S)N(c3ccc(C#N)c(C(F)(F)F)c3)C(=O)[C@]2(C)COC)cc1F", "Androgen receptor (Homo sapiens, UniProt P10275)", 798),
]

Alright, here's another compound for you.
// query I am curious: what Ki value has been reported for CNC(=O)c1ccc(N2CCC(=O)N(c3ccc(C#N)c(C(F)(F)F)c3)C2=S)cc1F ?
// result 576

----------
assayed-system: Androgen receptor (Homo sapiens, UniProt P10275)
test-summary: Antagonist activity at androgen receptor (unknown origin)
Binarize Ki at 40 nM; below is met, at or above is not met.

# compound, qualitative-label
rows = [
    ("CNC(=O)c1ccc(N2C(=S)N(c3ccc(C#N)c(C(F)(F)F)c3)C(=O)C23CCOCC3)cc1F", "not met"),
    ("CNC(=O)c1ccc(N2C(=S)N(c3ccc(C#N)c(C(F)(F)F)c3)C(=O)C2(C)COC)cc1F (racemic)", "not met"),
    ("CNC(=O)c1ccc(N2C(=S)N(c3ccc(C#N)c(C(F)(F)F)c3)C(=O)C23CCOC3)cc1F (racemic)", "met"),
    ("CNC(=O)c1ccc(N2C(=S)N(c3ccc(C#N)c(C(F)(F)F)c3)C(=O)C2(C)COCc2ccccc2)cc1F (racemic)", "not met"),
]

// query Strictly below 40 nM in Ki? CNC(=O)c1ccc(N2C(=S)N(c3ccc(C#N)c(C(F)(F)F)c3)C(=O)[C@]23CCOC3)cc1F
// result met

----------
test-summary: AUC (0 to time) in rat at 5 mg/kg, po
Type: ADME, organism-based
condition: in vivo
metric-name: AUC

Example cases with answers are listed next.
# smiles, observed-value
measured = [
    ("N#Cc1ccc(N2C(=O)[C@]3(CCOC3)N(c3ccc(C(=O)O)c(F)c3)C2=S)cc1C(F)(F)F", "716 ng·h/mL"),
    ("N#Cc1ccc(N2C(=O)[C@]3(CCOC3)N(c3ccc(C(N)=O)c(F)c3)C2=S)cc1C(F)(F)F", "1280 ng·h/mL"),
    ("COC(=O)c1ccc(N2C(=S)N(c3ccc(C#N)c(C(F)(F)F)c3)C(=O)[C@]23CCOC3)cc1F", "570 ng·h/mL"),
]

In the following, a different compound is considered.
// query Quick one: AUC for CNC(=O)c1ccc(N2C(=S)N(c3ccc(C#N)c(C(F)(F)F)c3)C(=O)[C@]23CCOC3)cc1F ?
// result 13000 ng·h/mL
